# SYSTEM_UNDER_TEST: HLA-B*2705 expressed on C1R-neo cells (human, UniProt P01889 25-362; P61769 21-119)
# EXPERIMENT_DESCRIPTION: ECL cell binding, C1R-neo B*2705 cells, pH 7.2; separate day
ENDPOINT: max RLU (RLU)
Reply numerically in RLU, unit not repeated.

Past entries and their recorded results:
H4H2499N20 (antibody, V domains shown) VH: QVQLVESGGGLVKPGGSLRLSCAASGFTFSDYYMSWIRQAPGKGLEWVSYISTSGSTIYYPDSVKGRFTISRDNAKNSLNLQMNSLRAEDTAVYYCLLHHYYGHDHWGQGTTVTVSS VL: EIVLTQSPATLSLSPGERAPLSCRASQHVHHYLAWYQQKPGQPPRLLIYDASNRATGIPARFSGSGSGTDFTLTISSLEPEDFAVYYCQQRSNWPWTFGQGTKVEIK
24400
H4H2499N17 (antibody, V domains shown) VH: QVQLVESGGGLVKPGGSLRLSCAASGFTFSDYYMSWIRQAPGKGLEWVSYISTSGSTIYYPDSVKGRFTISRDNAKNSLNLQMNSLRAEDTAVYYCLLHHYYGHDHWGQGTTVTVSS VL: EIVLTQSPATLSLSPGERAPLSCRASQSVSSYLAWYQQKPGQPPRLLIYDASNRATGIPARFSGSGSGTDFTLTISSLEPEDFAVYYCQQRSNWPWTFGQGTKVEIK
23800
H4H2499N3 (antibody, V domains shown) VH: QVQLVESGGGLVKPGGSLRLSCAASGFTFSDYYMSWIRQAPGKGLEWVSYISHSGSTIYYPDSVKGRFTISRDNAKNSLNLQMNSLRAEDTAVYYCLLHYYYGMDVWGQGTTVTVSS VL: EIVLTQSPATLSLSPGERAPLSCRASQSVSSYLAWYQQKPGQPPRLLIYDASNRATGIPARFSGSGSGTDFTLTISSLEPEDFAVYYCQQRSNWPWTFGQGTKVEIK
18400
H4H2499N8 (antibody, V domains shown) VH: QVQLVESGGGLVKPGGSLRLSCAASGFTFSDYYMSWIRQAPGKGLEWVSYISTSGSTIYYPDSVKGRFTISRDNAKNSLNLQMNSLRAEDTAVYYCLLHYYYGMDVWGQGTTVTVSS VL: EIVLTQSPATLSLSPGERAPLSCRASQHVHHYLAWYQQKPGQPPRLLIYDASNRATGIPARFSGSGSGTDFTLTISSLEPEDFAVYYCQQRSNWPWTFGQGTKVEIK
26700
H4H2499N22 (antibody, V domains shown) VH: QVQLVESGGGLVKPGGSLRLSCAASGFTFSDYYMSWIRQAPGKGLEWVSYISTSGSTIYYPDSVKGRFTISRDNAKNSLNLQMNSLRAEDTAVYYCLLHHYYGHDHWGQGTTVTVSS VL: EIVLTQSPATLSLSPGERAPLSCRASQSVSSYLAWYQQKPGQPPRLLIYDASNRATGIPARFSGSGSGTDFTLTISSLEPEDFAVYYCQQRHHWPWHFGQGTKVEIK
31600
H4H2499N12 (antibody, V domains shown) VH: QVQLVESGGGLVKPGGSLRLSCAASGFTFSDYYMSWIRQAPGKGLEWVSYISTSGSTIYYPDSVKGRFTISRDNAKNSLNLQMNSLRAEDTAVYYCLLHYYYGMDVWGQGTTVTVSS VL: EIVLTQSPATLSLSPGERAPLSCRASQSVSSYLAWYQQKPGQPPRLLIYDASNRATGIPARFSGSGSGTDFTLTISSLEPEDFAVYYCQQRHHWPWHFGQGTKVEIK
32800

From here, focus on the item given below.
Ask | Respond only with max RLU recorded for H4H2499N2 (antibody, V domains shown) VH: QVQLVESGGGLVKPGGSLRLSCAASGFTFSDHYMSWIRQAPGKGLEWVSYISTSGSTIYYPDSVKGRFTISRDNAKNSLNLQMNSLRAEDTAVYYCLLHYYYGMDVWGQGTTVTVSS VL: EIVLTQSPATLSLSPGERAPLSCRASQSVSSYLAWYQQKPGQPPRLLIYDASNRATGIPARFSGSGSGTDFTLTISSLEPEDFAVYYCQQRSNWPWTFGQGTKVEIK
Reply | 23700
